- Test system: ATP;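 note: ATP exposure 15 min at 22 °C before imaging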
- assayProtocol: switch fluorescence ratio, 500 uM ATP over buffer (Cy3 cluster intensity, sum of 5 cycles each) (fold (ratio)); higher = stronger signal-on switching upon ATP binding; sequences stand for … in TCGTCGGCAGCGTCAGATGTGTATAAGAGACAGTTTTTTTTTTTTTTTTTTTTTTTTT…TC
- assayContext: aptamer strand: ATP DNA aptamer (quencher-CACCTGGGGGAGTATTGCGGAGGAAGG + anchor), 100 nM annealed; ATP concentration: 500 uM
Recorded switch fluorescence ratio for the following sequences
readoutType: switch fluorescence ratio

| biosequence | readoutType | measValue |
| --- | --- | --- |
| TTCTTAGAAA | switch fluorescence ratio | 0.991 |
| TATAACGTTA | switch fluorescence ratio | 0.993 |
| TAATGGGGCG | switch fluorescence ratio | 0.997 |
| CCCATTGTCG | switch fluorescence ratio | 1.01 |
| CAGGGTTTTA | switch fluorescence ratio | 1.01 |
| CTGTGGCCCG | switch fluorescence ratio | 0.98 |
| AAAAATAATT | switch fluorescence ratio | 0.983 |
| ATACGCTGTT | switch fluorescence ratio | 0.988 |

---

Parameter: switch fluorescence ratio. Scope: all listed entries.
- Tested on: ATP;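 note: ATP exposure 15 min at 22 °C before imaging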
- assayProtocol: switch fluorescence ratio, 500 uM ATP over buffer (Cy3 cluster intensity, sum of 5 cycles each) (fold (ratio)); higher = stronger signal-on switching upon ATP binding; sequences stand for … in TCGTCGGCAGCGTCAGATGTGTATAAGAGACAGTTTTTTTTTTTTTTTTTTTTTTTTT…TC
- assayContext: aptamer strand: ATP DNA aptamer (quencher-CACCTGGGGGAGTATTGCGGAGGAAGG + anchor), 100 nM annealed; ATP concentration: 500 uM

| biosequence | switch fluorescence ratio |
| --- | --- |
| CTTAGTATAG | 0.998 |
| GATTGTTGTA | 0.979 |
| CAATGGGCGT | 1.01 |
| AGGCCTCTGT | 0.99 |
| CATTAAATTT | 1.02 |
| AATACGGTCT | 1 |

---

The reader will find reported switch fluorescence ratio values listed item by item below.
- System: ATP;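 note: ATP exposure 15 min at 22 °C before imaging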
- assayProtocol: switch fluorescence ratio, 500 uM ATP over buffer (Cy3 cluster intensity, sum of 5 cycles each) (fold (ratio)); higher = stronger signal-on switching upon ATP binding; sequences stand for … in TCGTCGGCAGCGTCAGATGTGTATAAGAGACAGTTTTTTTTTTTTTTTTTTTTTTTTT…TC
- assayContext: aptamer strand: ATP DNA aptamer (quencher-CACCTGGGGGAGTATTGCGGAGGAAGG + anchor), 100 nM annealed; ATP concentration: 500 uM

| biosequence | switch fluorescence ratio |
| --- | --- |
| TGAAAGGGGA | 1.03 |
| GTGTTAAGGG | 0.979 |
| CTTAAATTCT | 1.01 |
| ATTTCGAATG | 0.983 |
| ACCACCTTAC | 2.32 |
| CGCTCTTTTG | 1.02 |
| TTCTAAGTA | 1.02 |
| GATCCACGGT | 1.03 |
| TAGAGCGGGG | 0.99 |
| ATGACCCCTC | 1.04 |
| CTTATATATG | 0.987 |
| TGTTGTTACA | 0.99 |
| TTGATTTGGT | 1 |
| CCTTGTGTTG | 1.01 |
| TGTGGGGGTA | 0.986 |
| GCCCAAGGA | 1.03 |
| CGACTGGGAG | 0.981 |
| CAAGTGTTCG | 0.996 |
| ATTTCACTGA | 1.03 |
| TTAGGACTTT | 0.975 |
| ATGGGGGAAA | 0.991 |
| GGATTAGTGA | 0.964 |
| CAAGGATAGG | 0.998 |
| TGGGGAAAGA | 1.01 |
| GGGGTAGGAC | 1.01 |
| AACTGGACTC | 1.14 |
| GTTTGATGCG | 0.995 |
| AAACTGACGG | 1.37 |
| ATAGGTAGGG | 0.984 |
| TTATAGGAAC | 1.02 |
| TGAGAGGGTG | 1.04 |
| ACCTTGGGGA | 1.25 |
| GGCCCCATGC | 1.24 |
| TTGTAAGATT | 0.987 |
| TCAAGAGATG | 1 |
| GCCCGGGGAC | 1.18 |
| GTACTCGAGC | 1 |
| CTGGAAATTT | 1 |
| TAAACGGGGT | 1.03 |
| AGTCAGTCTG | 1.01 |
| AATCGCGTTT | 1.02 |
| CATGGTTTTC | 0.962 |
| AAGGGGAGGA | 0.989 |
| ACTAGACTAG | 0.984 |
| CTTATCAATT | 1 |
| TTTTTATTAT | 1.01 |
| ATCTGCCGGT | 0.981 |
| CGCTCAAAGG | 1.03 |
| GTCGCTGTGG | 1.04 |
| GTACTATCTC | 0.998 |
| TGTTATAATG | 1.03 |
| GGGGGGCTGC | 0.978 |
| GGTGGGGGAT | 1.01 |
| TTAGCAGGTG | 2.78 |
| ATTCACATAT | 1.11 |
